- System Under Test: CaSR de rat (Rattus norvegicus)
- Construct: expressed in transfected cells; host or cells: CHO (Chinese hamster ovary) cells, line CHO(CaSR)
- Test Description: Accumulation of tritiated inositol phosphates ([3H]IP) in transfected CHO(CaSR) cells
- Format: cell-based
- Study Conditions: compound 10 µM, basal level in presence of 2 mM Ca^2+ = 100 %, read-out: Accumulation d'(^3H)-IP % du taux basal. CHO (CaSR)
Readout Kind: activity at 10 µM (%)

                                   molecule  measurement_unit  readout_value
0  COc1cccc([C@@H](C)NCCCc2ccccc2Cl)c1 [NPS R-568, reference compound]                 %            454
1  CC(NCC(Cc1ccccc1)NS(=O)(=O)c1ccccc1Cl)c1cccc2ccccc12 (stereo not drawn) [PHD 301]                 %            304
2  COc1ccc(S(=O)(=O)NC(CNC(C)c2cccc3ccccc23)Cc2ccccc2)cc1OC (stereo not drawn) [PHD 321]                 %            446
3  CC(NCC(Cc1ccccc1)NCc1ccccc1Cl)c1cccc2ccccc12 (stereo not drawn) [PHD 307]                 %            393
4  CC(NCC(Cc1ccccc1)NS(=O)(=O)c1cccc(Cl)c1)c1cccc2ccccc12 (stereo not drawn) [PHD 308]                 %            314
5  CC(NCC(Cc1ccccc1)NCc1cccc(Cl)c1)c1cccc2ccccc12 (stereo not drawn) [PHD 312]                 %            383

---

- System Under Test: CaSR de rat (Rattus norvegicus, UniProt P48442)
- Construct: expressed in transfected cells; host or cells: CHO (Chinese hamster ovary) cells, line CHO(CaSR)
- Sequence (P48442 20-1079): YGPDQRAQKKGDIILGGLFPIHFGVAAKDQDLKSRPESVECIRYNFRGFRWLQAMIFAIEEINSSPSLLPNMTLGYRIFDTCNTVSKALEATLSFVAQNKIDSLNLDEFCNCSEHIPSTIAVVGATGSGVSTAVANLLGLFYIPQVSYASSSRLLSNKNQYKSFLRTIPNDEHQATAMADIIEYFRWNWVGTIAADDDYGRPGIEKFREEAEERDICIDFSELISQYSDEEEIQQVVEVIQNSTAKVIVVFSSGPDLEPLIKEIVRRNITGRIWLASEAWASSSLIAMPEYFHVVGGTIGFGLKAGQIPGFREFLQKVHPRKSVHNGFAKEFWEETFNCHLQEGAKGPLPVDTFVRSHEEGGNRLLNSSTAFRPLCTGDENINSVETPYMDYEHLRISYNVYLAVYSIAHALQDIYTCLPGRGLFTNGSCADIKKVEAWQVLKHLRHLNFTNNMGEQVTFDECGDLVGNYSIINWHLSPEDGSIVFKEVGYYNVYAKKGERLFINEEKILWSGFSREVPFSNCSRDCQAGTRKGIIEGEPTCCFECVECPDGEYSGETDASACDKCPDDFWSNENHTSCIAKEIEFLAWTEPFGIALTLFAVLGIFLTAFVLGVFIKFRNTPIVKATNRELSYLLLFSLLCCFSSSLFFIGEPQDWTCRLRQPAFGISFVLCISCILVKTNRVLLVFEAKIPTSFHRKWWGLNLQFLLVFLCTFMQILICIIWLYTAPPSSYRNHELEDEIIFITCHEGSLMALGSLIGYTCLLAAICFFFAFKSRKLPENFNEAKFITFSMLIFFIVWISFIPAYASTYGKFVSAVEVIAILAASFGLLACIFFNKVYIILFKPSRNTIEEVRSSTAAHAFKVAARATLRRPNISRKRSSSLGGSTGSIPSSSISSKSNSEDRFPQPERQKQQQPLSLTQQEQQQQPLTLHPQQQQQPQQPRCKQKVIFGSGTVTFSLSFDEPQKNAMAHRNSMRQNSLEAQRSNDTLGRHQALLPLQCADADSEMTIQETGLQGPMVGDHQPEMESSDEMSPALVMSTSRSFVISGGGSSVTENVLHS
- Test Description: Accumulation of tritiated inositol phosphates ([3H]IP) in transfected CHO(CaSR) cells
- Type: cell-based
- Study Conditions: compound 10 µM, in presence of 2 mM Ca^2+, mean ± standard error of 2 to 5 independent experiments, read-out: Accumulation d'(^3H)-IP % de la réponse 10mM Ca^2+ ± E.S.
Readout Kind: activation at 10 µM (%)

>>> df
                                   compound         readout_kind  readout_value
0  CC(NCC(Cc1ccccc1)NS(=O)(=O)c1cccs1)c1cccc2ccccc12 (stereo not drawn)  activation at 10 µM             78
1  COc1ccc(S(=O)(=O)NC(CNC(C)c2cccc3ccccc23)Cc2cccc(C)c2OC)cc1 (stereo not drawn)  activation at 10 µM             37
2  COc1cccc([C@@H](C)NCCCc2ccccc2Cl)c1 [NPS R-568, reference compound]  activation at 10 µM            100
3  COc1cccc([C@@H](C)NCC(NS(=O)(=O)c2ccc(C)cc2)c2ccccc2)c1 (stereo partly drawn)  activation at 10 µM             22
4  CC(NS(=O)(=O)c1ccc2ccccc2c1)c1cccc2ccccc12 (stereo not drawn)  activation at 10 µM             29
5  Cc1ccc(S(=O)(=O)NCC(NC(C)c2cccc3ccccc23)c2ccccc2)cc1 (stereo not drawn)  activation at 10 µM              6

1 = CC(NCC(Cc1ccccc1)NS(=O)(=O)c1ccc([N+](=O)[O-])cc1)c1ccccc1 (stereo not drawn)
2 = CC(NCC(Cc1ccccc1)NS(=O)(=O)c1ccc(N)cc1)c1ccccc1 (stereo not drawn)
3 = CC(NCC(Cc1ccccc1)NS(=O)(=O)c1ccccc1)c1cccc2ccccc12 (stereo not drawn)
Sort the compounds on activation at 10 µM; start with the lowest figure. Note for the reader: the ranking is given by listing the labels in the order requested. 2, 1, 3
(2: 2%, 1: 8%, 3: 78%)

src = patent EP1235797B1
